In this section we review reported Population Mitotic Cells (%) values for a set of compounds.
system: U2OS; experiment: Multiplex assay against U2OS; format: toxicity, cell-based; conditions: human, 12 h, 1 µM, compound concentration 1 uM, replicate 2
reportedMetric: Population Mitotic Cells (%)

- compound: "O=S(=O)(c1ccccc1)c1cnc2c(N3CCNCC3)cccc2c1 [INTEPIRDINE]"
  systemTested: "U2OS"
  reportedMetric: "Population Mitotic Cells (%)"
  valueObserved: 30
- compound: "CC[C@H]1OC(=O)[C@H](C)[C@@H](O[C@H]2C[C@@](C)(OC)[C@@H](O)[C@H](C)O2)[C@H](C)[C@@H](O[C@@H]2O[C@H](C)C[C@H](N(C)C)[C@H]2O)[C@@]2(C)CC(C)=C(O2)[C@H](C)[C@@H](O)[C@]1(C)O"
  systemTested: "U2OS"
  reportedMetric: "Population Mitotic Cells (%)"
  valueObserved: 15
- compound: "Cc1ccc(-c2ccc(F)cc2COc2ccc(CCC(=O)O)cc2)cc1"
  systemTested: "U2OS"
  reportedMetric: "Population Mitotic Cells (%)"
  valueObserved: 0
- compound: "CC(=O)NCCc1c(Cc2ccccc2)[nH]c2ccccc12"
  systemTested: "U2OS"
  reportedMetric: "Population Mitotic Cells (%)"
  valueObserved: 0
- compound: "Cc1ccc(F)cc1C(=O)Nc1ccc(C(=O)N2Cc3cccn3Cc3ccccc32)c(Cl)c1"
  systemTested: "U2OS"
  reportedMetric: "Population Mitotic Cells (%)"
  valueObserved: 15
- compound: "CN(C)CCCc1cc(C(=O)Nc2ccc(-c3ccncc3)cc2)ccc1O.Cl.Cl"
  systemTested: "U2OS"
  reportedMetric: "Population Mitotic Cells (%)"
  valueObserved: 0
- compound: "O=C(O)c1cc2ccccc2c(Cc2c(O)c(C(=O)O)cc3ccccc23)c1O"
  systemTested: "U2OS"
  reportedMetric: "Population Mitotic Cells (%)"
  valueObserved: 50

----------
Recorded Total Cell Count by entry
tested on: Fibroblast; assay: Multiplex assay against human fibroblast; format: toxicity, cell-based; settings: 24 h, 1 µM, compound concentration 1 uM, replicate 1

- molecule: "CSCC[C@H](NC=O)C(=O)N[C@@H](CC(C)C)C(=O)N[C@@H](Cc1ccccc1)C(=O)O"
  Total Cell Count: 173
- molecule: "COc1cc(C(=O)N(CCCc2ccccc2)Cc2ccc(CC(=O)O)cc2)cc(OC)c1C"
  Total Cell Count: 156
- molecule: "O=S(=O)(c1ccccc1)c1cnc2c(N3CCNCC3)cccc2c1 [INTEPIRDINE]"
  Total Cell Count: 212
- molecule: "O=C(O)c1cc2ccccc2c(Cc2c(O)c(C(=O)O)cc3ccccc23)c1O"
  Total Cell Count: 156

----------
system: HEK-293T; assay: Multiplex assay against HEK293T; format: toxicity, cell-based; conditions: human, 24 h, 1 µM, compound concentration 1 uM, replicate 1
Measured Total Cell Count, listed per entry.

- compound: "C[C@@H]1C[C@H]2[C@@H]3CCC4=CC(=O)C=C[C@]4(C)[C@@]3(F)[C@@H](O)C[C@]2(C)[C@@]1(O)C(=O)CO [DEXAMETHASONE]"
  Total Cell Count: 569
- compound: "O=C(NCC(=O)N1CC[C@H](N[C@H]2CC[C@@](O)(c3ccc(-c4ncccn4)cn3)CC2)C1)c1cccc(C(F)(F)F)c1 [PF-4136309]"
  Total Cell Count: 561
- compound: "Cc1ccc(-c2ccc(F)cc2COc2ccc(CCC(=O)O)cc2)cc1"
  Total Cell Count: 688
- compound: "CCOc1c2c(c(OCC)c3ncccc13)CN(c1ccc(CS(=O)(=O)NC(=O)Cc3ccccc3OC)cc1C)C2=O"
  Total Cell Count: 462
- compound: "O=C1COc2nccc(-c3ccccc3F)c2CN1Cc1cc(C(F)(F)F)cc(C(F)(F)F)c1"
  Total Cell Count: 517
- compound: "CN1CCN(c2nc3cc(C(F)(F)F)ccc3n3cccc23)CC1.O=C(O)/C=C\\C(=O)O.O=C(O)/C=C\\C(=O)O"
  Total Cell Count: 557
